Assay: Drug uptake in human NCI-N87 tumor xenografted in mouse at 100 mg/kg administered QD for 3 days measured at 24 hrs post-last dose
Type: ADME, organism-based, Neoplasm
Parameters: dose 100 mg/kg
Settings: human NCI-N87 tumor xenograft, read-out: Drug uptake
Measured endpoint: concentration at 24 h (nM)
Unit nM implied. Number only.

Item CC[C@@H](C)Nc1cc(C(=O)NC2CC3CCC(C2)N3c2ccc(C(=O)C3CC3)cn2)c(C)cc1C(N)=O (stereo partly specified) has what recorded concentration at 24 h?
2860

----------
Assay: Half life in rat at 5 mg/kg, iv
Type: ADME, organism-based
Design: dose 5 mg/kg, route intravenous
Settings: in vivo
Measured endpoint: half-life (h)
Unit h implied. Number only.

// solved cases for half-life follow
>  <Compound>
COc1cccc(C(=O)NC2CC3CCC(C2)N3c2ccc(C(N)=O)cn2)c1C (stereo not given)

>  <Numeric readout>
2.1

$$$$
>  <Compound>
CCC(CC)Nc1cc(C(=O)NC2CC3CCC(C2)N3c2ccc(C(C)=O)cn2)c(C)cc1C(N)=O (stereo not given)

>  <Numeric readout>
1.7

$$$$
>  <Compound>
CCC(CC)Nc1cc(C(=O)NC2CC3CCC(C2)N3c2ccc(C(=O)C3CC3)cn2)ccc1C(N)=O (stereo not given)

>  <Numeric readout>
0.5

$$$$

Item CC[C@@H](C)Nc1cc(C(=O)NC2CC3CCC(C2)N3c2ccc(C(=O)C3CC3)cn2)c(C)cc1C(N)=O (stereo not given in full) has what recorded half-life?
1.4

// next record CCC(CC)Nc1cc(C(=O)NC2CC3CCC(C2)N3c2ccc(C(C)=O)cn2)ccc1C(N)=O (stereo not given)
0.5
